# Lookup of reported pKi keyed by entry
- measuredOn: Free fatty acid receptor 1 (Rattus norvegicus, UniProt Q8K3T4)
- Sequence (Q8K3T4 whole entry): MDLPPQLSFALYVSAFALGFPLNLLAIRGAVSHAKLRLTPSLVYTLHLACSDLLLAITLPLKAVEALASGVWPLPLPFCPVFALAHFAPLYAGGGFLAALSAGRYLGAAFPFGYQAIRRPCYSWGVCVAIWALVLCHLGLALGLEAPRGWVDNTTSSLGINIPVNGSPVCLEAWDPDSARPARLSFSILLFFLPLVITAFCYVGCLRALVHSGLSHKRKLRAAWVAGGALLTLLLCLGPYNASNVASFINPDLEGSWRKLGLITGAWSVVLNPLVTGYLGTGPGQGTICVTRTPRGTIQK
- protocolDetails: Displacement of 3-[4-({2',6'-dimethyl-6-[(4-[3H])-phenylmethoxy]biphenyl-3-yl}methoxy)phenyl] propanoic acid from rat GPR40 receptor expressed in CHO cells after 90 mins by scintillation counting in presence of 0.2% BSA
pKi: −log10 of the molar value.

O=C(O)CC1COc2cc(OCc3cccc(-c4csc5ccccc45)c3)ccc21 (centres undefined) ... < 5.00

Exercise: // fetch pKi given entry O=C(O)CC1COc2cc(OCc3cccc(-c4ccc5sccc5c4)c3)ccc21 (centres undefined)
Key: < 5.00

Exercise: Report measured pKi; entry is CCOCCOc1cc(C)c(-c2cccc(CNc3ccc4c(c3)OCC4CC(=O)O)c2)c(C)c1 (centres undefined)
Key: 6.96

Exercise: Given the molecule Cc1cccc(C)c1-c1cccc(COc2ccc3c(n2)CCC3CC(=O)O)c1 (centres undefined) , write its reported pKi.
Key: < 5.00

###

- measuredOn: Free fatty acid receptor 1 (Rattus norvegicus, UniProt Q8K3T4)
- protocolDetails: Displacement of 3-[4-({2',6'-dimethyl-6-[(4-[3H])-phenylmethoxy]biphenyl-3-yl}methoxy)phenyl] propanoic acid from rat GPR40 receptor expressed in CHO cells after 90 mins by scintillation counting in presence of 0.2% BSA
assayMetric: Ki

Use these answered entries as a reference point.
CCOCCOc1cc(C)c(-c2cccc(COc3ccc4c(c3)CCC(CC(=O)O)C4)c2)c(C)c1 (stereo not given) ... > 10 µM
CCOCCOc1cc(C)c(-c2cccc(COc3ccc4c(c3)CCC(C(=O)O)C4)c2)c(C)c1 (stereo not given) ... > 10 µM
Cc1cccc(C)c1-c1cccc(COc2ccc3c(c2)CC3CC(=O)O)c1 (stereo not given) ... > 10 µM
Cc1cccc(C)c1-c1cccc(COc2ccc3c(ccn3CC(=O)O)c2)c1 ... > 10 µM

Exercise: Tell me measured Ki for CCOCCOc1cc(C)c(-c2cccc(COc3ccc4c(c3)CC(C(=O)O)C4)c2)c(C)c1 (stereo not given) please.
Key: > 10 µM
